testedSystem: RAF proto-oncogene serine/threonine-protein kinase (Homo sapiens)
experimentalConditions: at 10 µM
For each entry below, report its residual activity value.

-- ask Requested read-out: residual activity. Entry: `N#Cc1c(NC(=O)c2cccc3ccccc23)sc2c1CCCC2`
-- reply 78%

-- ask Requested read-out: residual activity. Entry: `NC(=O)Nc1sc(-c2ccc(F)cc2)cc1C(N)=O`
-- reply 19%

-- ask Requested read-out: residual activity. Entry: `O=C1Nc2ccccc2/C1=C\c1c(Cl)[nH]c2ccccc12`
-- reply 41%

-- ask Requested read-out: residual activity. Entry: `Cc1cc(C)c(/C=C2\C(=O)Nc3ccccc32)[nH]1`
-- reply 103%

-- ask Requested read-out: residual activity. Entry: `O=c1cc(N2CCOCC2)oc2c1ccc1ccccc12`
-- reply 89%

-- ask Requested read-out: residual activity. Entry: `CCCCc1c(-c2ccc(O)cc2)[nH]c2nccnc12`
-- reply 71%

---

For each entry below, report its residual activity value.
testedSystem: Tyrosine-protein kinase FRK (Homo sapiens)
experimentalConditions: at 10 µM
The figure you give is taken to be in %; do not add the unit.

-- ask Requested read-out: residual activity. Entry: `COc1cc2nccc(Oc3ccc(NC(=O)Nc4cc(C)on4)c(Cl)c3)c2cc1OC`
-- reply -3

-- ask Requested read-out: residual activity. Entry: `Nc1nc(Nc2ccc(S(N)(=O)=O)cc2)nn1C(=O)c1c(F)cccc1F`
-- reply 38

-- ask Requested read-out: residual activity. Entry: `Nc1n[nH]c2nc3ccccc3nc12`
-- reply 92

-- ask Requested read-out: residual activity. Entry: `Cn1c2ccccc2c2c3c(c4c5ccccc5n(CCC#N)c4c21)CNC3=O`
-- reply 33

-- ask Requested read-out: residual activity. Entry: `CCCCc1c(-c2ccc(O)cc2)[nH]c2nccnc12`
-- reply 25

-- ask Requested read-out: residual activity. Entry: `Nc1ncnc2c1c(-c1ccc(Oc3ccccc3)cc1)cn2C1CCCC1`
-- reply 2

-- ask Requested read-out: residual activity. Entry: `COc1ccc(Cl)cc1NC(=O)Nc1cc(C)nc2ccccc12`
-- reply 129

-- ask Requested read-out: residual activity. Entry: `O=C1NC(=O)c2c1c1c3ccccc3[nH]c1n1cncc21`
-- reply 63

-- ask Requested read-out: residual activity. Entry: `O=C(c1cc2cc(O)ccc2[nH]1)c1cc2cc(O)ccc2[nH]1`
-- reply 7

-- ask Requested read-out: residual activity. Entry: `O=C(O)/C=C/c1cc(Br)c(Br)c(Br)c1Br`
-- reply 86

-- ask Requested read-out: residual activity. Entry: `NC(=O)c1ccc(-c2nc(-c3ccc4c(c3)OCCO4)c(-c3ccccn3)[nH]2)cc1`
-- reply 89

---

testedSystem: Ephrin type-B receptor 3 (Homo sapiens)
experimentalConditions: at 10 µM
Description: Millipore: Percentage of residual kinase activity of EPHB3 at 10uM relative to control. Control inhibitor: PP2 at 30.0uM. Buffer: 8 mM MOPS pH 7.0, 0.2 mM EDTA, 10 mM MnCl2
For each entry below, report its residual activity value.
The figure you give is taken to be in %; do not add the unit.

-- ask Requested read-out: residual activity. Entry: `NCCNc1ncc(C(N)=O)c(Nc2cccc(C(F)(F)F)c2)n1`
-- reply 111

-- ask Requested read-out: residual activity. Entry: `O=C(CCCc1ccc(-c2ccccc2F)cc1)Nc1ccc(O)cc1`
-- reply 97

-- ask Requested read-out: residual activity. Entry: `N#C/C(=C1/Nc2ccccc2S1)c1ccnc(NCCc2cccnc2)n1`
-- reply 74

-- ask Requested read-out: residual activity. Entry: `CC(C)(C)n1nc(Cc2cccc3ccccc23)c2c(N)ncnc21`
-- reply 12

-- ask Requested read-out: residual activity. Entry: `COc1cc2nccc(Oc3ccc(NC(=S)NC(=O)c4ccccc4C)cc3)c2cc1OC`
-- reply 129

-- ask Requested read-out: residual activity. Entry: `COc1ccc2c(c1)c(C1=C(c3c[nH]c4ccccc34)C(=O)NC1=O)cn2CCCN(C)C`
-- reply 124

-- ask Requested read-out: residual activity. Entry: `Oc1cccc(-c2nc(N3CCOCC3)c3oc4ncccc4c3n2)c1`
-- reply 123

-- ask Requested read-out: residual activity. Entry: O=C(NC(NC(=S)Nc1ccc(F)c([N+](=O)[O-])c1)C(Cl)(Cl)Cl)C(c1ccccc1)c1ccccc1 (stereo unspecified)
-- reply 84

-- ask Requested read-out: residual activity. Entry: `N#C/C(=C\c1ccc(O)c(O)c1)C(=O)NCc1ccccc1`
-- reply 133

-- ask Requested read-out: residual activity. Entry: `Cn1c2ccccc2c2c3c(c4c5ccccc5n(CCC#N)c4c21)CNC3=O`
-- reply 118

-- ask Requested read-out: residual activity. Entry: `NC(=O)Nc1sc(-c2ccc(F)cc2)cc1C(N)=O`
-- reply 117

Where do the numbers come from? From ChEMBL document CHEMBL2218924.
